Values were extracted from patent US20260262643A1.

- System: blackgrass
- protocolDescription: Test C preemergence
- Assay type: in vivo, Alopecurus myosuroides
- settings: 500 g ai/ha, preemergence; 0 to 100 scale (0 no effect, 100 complete control)
metricName: Blackgrass plant response rating
Lab note: write the figure by itself, no unit.

Form: molecule = Cc1ccc(-n2cnc(C(C)C)n2)cc1C(=O)N1CC(C(F)(F)F)Oc2c(Cl)cccc21 (single isomer, unassigned) ; Blackgrass plant response rating = 90

Form: molecule = Cc1cccc2c1OC(C(F)(F)F)CN2C(=O)c1ccnc(-n2cnc(C(C)C)n2)c1 (stereo not shown) [Compound 327] ; Blackgrass plant response rating = 90

Form: molecule = `Cc1ncn(-c2ccc(F)c(C(=S)N3C[C@H](C)Oc4c(C)cccc43)c2)n1` ; Blackgrass plant response rating = 80

Form: molecule = `Cc1ncc(-c2cccc(C(=O)N3C[C@H](C)Oc4c(Cl)cccc43)c2)o1` ; Blackgrass plant response rating = 0

* * *

So I've got a bunch of compounds here, and I need their Plant response rating, Horseweed values.
- Test system: horseweed
- protocolDescription: Test C postemergence
- Type: in vivo, Erigeron canadensis
- settings: 500 g ai/ha, postemergence, 10 days, 0 to 100 scale (0 no effect, 100 complete control)
Lab note: write the figure by itself, no unit.

The compound CCOCC1CN(C(=O)c2cc(-n3cnc(C4CCC4)n3)ccc2OC)c2cccc(Cl)c2O1 (centres unmarked) [Compound 377] , tested on horseweed, showed Plant response rating, Horseweed of 30

The compound Cc1cccc2c1OC(C(F)(F)F)CN2C(=O)c1cccc(-n2cnc(C(C)C)n2)c1 (single isomer, unassigned) [Compound 302] , tested on horseweed, showed Plant response rating, Horseweed of 50

The compound Cc1ncn(-c2cccc(C(=O)N3C[C@H](C)Oc4c(Cl)cccc43)c2)n1 [Compound 326] , tested on horseweed, showed Plant response rating, Horseweed of 50

The compound CC(C)c1ncn(-c2cc(C(=O)N3CC(C(F)(F)F)Oc4c(Cl)cccc43)ccn2)n1 (racemic) [Compound 329] , tested on horseweed, showed Plant response rating, Horseweed of 0

The compound Cc1ccc(-n2cnc(CC#N)n2)cc1C(=O)N1C[C@H](C)Oc2c(Cl)cccc21 [Compound 364] , tested on horseweed, showed Plant response rating, Horseweed of 0

The compound Cc1ccc(-n2cnc(C(C)(C)C#N)n2)cc1C(=O)N1C[C@H](C)Oc2c(Cl)cccc21 [Compound 397] , tested on horseweed, showed Plant response rating, Horseweed of 80

The compound Cc1cccc2c1OC(C(F)(F)F)CN2C(=O)c1ccnc(-n2cnc(C(C)C)n2)c1 (centres unmarked) [Compound 327] , tested on horseweed, showed Plant response rating, Horseweed of 60

The compound CCc1cc(C(=O)N2C[C@H](C)Oc3c(Cl)cccc32)cc(-n2cncn2)c1 [Compound 332] , tested on horseweed, showed Plant response rating, Horseweed of 0

The compound Cc1cccc2c1OC(C(F)(F)F)CN2C(=O)c1ccnc(-n2cnc(C(C)C)n2)c1 (single isomer, unassigned) [Compound 328] , tested on horseweed, showed Plant response rating, Horseweed of 60

The compound Cc1cccc2c1O[C@@H](C)CN2C(=O)c1cccc(-n2cnc(C#C[Si](C)(C)C)n2)c1 [Compound 284] , tested on horseweed, showed Plant response rating, Horseweed of 50

The compound CCc1ncn(-c2ccc(C)c(C(=O)N3CC(C(F)(F)F)Oc4c(Cl)cccc43)c2)n1 (racemic) [Compound 290] , tested on horseweed, showed Plant response rating, Horseweed of 40
